Every entry's value here was drawn from patent US8946439B2.

Measured IC50 of individual entries
# target.entity: hP2X2/3H (Homo sapiens, UniProt P56373+Q9UBL9)
# Construct: expressed in transfected cells; host or cells: e.g. HEK293 or 1321N1
# Sequence (Q9UBL9 whole entry, one chain of several): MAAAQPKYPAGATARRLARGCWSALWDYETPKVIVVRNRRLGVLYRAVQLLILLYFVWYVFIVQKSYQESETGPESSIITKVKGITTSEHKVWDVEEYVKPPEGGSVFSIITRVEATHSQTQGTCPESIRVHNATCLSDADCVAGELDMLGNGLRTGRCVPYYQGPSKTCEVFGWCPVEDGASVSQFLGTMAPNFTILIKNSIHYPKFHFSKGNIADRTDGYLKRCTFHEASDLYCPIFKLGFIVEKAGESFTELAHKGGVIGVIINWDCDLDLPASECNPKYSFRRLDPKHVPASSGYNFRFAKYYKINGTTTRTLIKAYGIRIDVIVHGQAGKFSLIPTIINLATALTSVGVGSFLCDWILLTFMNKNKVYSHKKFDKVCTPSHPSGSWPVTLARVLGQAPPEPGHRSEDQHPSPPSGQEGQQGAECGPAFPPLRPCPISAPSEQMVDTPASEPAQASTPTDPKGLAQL
# assay: Calcium uptake assay (P2X antagonist assay), P2X2/3 heteromer
# Type: cell-based
# condition.description: Ca influx (calcium uptake assay), hP2X2/3H; read-out: IC50 hP2X2/3H

Below are worked cases with known answers.
- compound: "COCC(CO)Oc1cc(C(=O)N[C@H](C)c2ccc(C)nc2)cc(-c2ccc(C)cc2C#N)c1 (some centres unmarked)"
  IC50: "< 100 nM"
- compound: "Cc1ccc(-c2cc(C(=O)N[C@H](C)c3cnc(C)nc3)cc(C(O)CO)c2)c(C#N)c1 (some centres unmarked)"
  IC50: "100 to 500 nM"
- compound: "Cc1ccc(-c2cc(OC3CCOC3)cc(C(=O)N[C@H](C)c3ccc(C)nc3)c2)cc1 (some centres unmarked)"
  IC50: "< 100 nM"

Input line: Any idea what its IC50 is? The compound is Cc1ccc(-c2cc(OC3CCOC3)cc(C(=O)N[C@H](C)c3cnc(C)nc3)c2)cc1 (some centres unmarked)
Output line: < 100 nM

Input line: Entry COCC(C)Oc1cc(C(=O)NCc2ccc(C)nc2)cc(-c2ccc(C)cc2)c1 (centres unmarked) has what IC50?
Output line: < 100 nM

Input line: Need IC50, item Cc1ccc(-c2cc(C(=O)N[C@H](C)c3cnc(C)nc3)cc(C(O)c3ccccc3)c2)nc1 (some centres unmarked)
Output line: < 100 nM

Input line: Please report the recorded IC50 for Cc1ccc(-c2cc(OCCO)cc(C(=O)N[C@H](C)c3ccc(C)nc3)c2)cc1 .
Output line: < 100 nM

Input line: I am curious: what IC50 value has been reported for Cc1ccc(-c2cc(C(=O)N[C@H](C)c3cnc(C)nc3)cc(S(C)(=O)=O)c2)nc1 ?
Output line: 100 to 500 nM

* * *

# target.entity: hP2X3 (Homo sapiens)
# Construct: expressed in transfected cells; host or cells: e.g. HEK293 or 1321N1
# Sequence (P56373 1-397): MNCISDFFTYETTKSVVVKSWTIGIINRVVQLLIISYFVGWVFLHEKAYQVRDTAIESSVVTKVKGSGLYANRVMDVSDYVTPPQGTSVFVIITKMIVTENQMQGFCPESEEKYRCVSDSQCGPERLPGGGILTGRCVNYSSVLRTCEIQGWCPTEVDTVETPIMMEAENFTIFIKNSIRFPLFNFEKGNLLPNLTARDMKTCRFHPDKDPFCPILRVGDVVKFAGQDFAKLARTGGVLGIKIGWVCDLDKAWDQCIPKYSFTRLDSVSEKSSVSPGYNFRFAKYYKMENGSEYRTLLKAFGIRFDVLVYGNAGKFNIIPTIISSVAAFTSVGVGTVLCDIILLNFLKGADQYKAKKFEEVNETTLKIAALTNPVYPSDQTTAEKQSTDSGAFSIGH
# assay: Calcium uptake assay (P2X antagonist assay), P2X3 homomer
# Type: cell-based
# condition.description: calcium uptake assay, hP2X3; read-out: IC50 hP2X3 (nM), Ca Influx
readout.name: IC50

- molecule: "Cc1ccc(-c2cc(C(=O)NCc3cnc(C)nc3)cc(C(=O)N3CC3C)c2)cc1 (stereo not shown) [Compound 31]"
  readout.name: "IC50"
  reported.measurement: "< 100 nM"
- molecule: "Cc1ccc(-c2cc(C(=O)N[C@@H](C)c3ccc(C)nc3)cc(C(=O)N3CCCC3)c2)cc1 [Compound 177]"
  readout.name: "IC50"
  reported.measurement: "> 1000 nM"
- molecule: "Cc1ccc(-c2cc(C(=O)N[C@H](CO)c3cnc(C)nc3)cc(C(=O)N3CCCC3)c2)cc1 [Compound 96]"
  readout.name: "IC50"
  reported.measurement: "< 100 nM"

Input line: Under hP2X3 (Homo sapiens): IC50 value of Cc1ccc(-c2cc(C(=O)NCc3ccc(C(F)(F)F)nc3)cc(C(=O)N3CC(O)C3)c2)cc1 [Compound 130] ?
Output line: < 100 nM

Input line: Provide the documented IC50 with hP2X3 (Homo sapiens) as the system for Cc1ccc(-c2cc(S(=O)(=O)N3CCCC3)cc(C(=O)NCc3ccc(C)nc3)c2C)cc1 [Compound 68]
Output line: 100 to 500 nM

Input line: Quick check: IC50 on hP2X3 (Homo sapiens), item Cc1ccc(-c2cc(C(=O)N[C@H](C)c3ccc(C(F)(F)F)nc3)cc(C(=O)N3CC[C@@H](O)C3)c2)nc1 [Compound 150] ?
Output line: < 100 nM

Input line: Given the entry Cc1ccc(-c2cc(C(=O)NCc3ccc(C)nc3)cc(C(=O)N3CCCC3)c2)nc1 [Compound 122] , what IC50 was observed with hP2X3 (Homo sapiens)?
Output line: < 100 nM

Input line: Return IC50 measured with hP2X3 (Homo sapiens) given this molecule: Cc1ccc(-c2cc(C(=O)NCc3cnc(C)nc3)cc(C(=O)N3CCN(C)CC3)c2)cc1 [Compound 25]
Output line: < 100 nM

* * *

Quick reference for IC50 among some compounds
# target.entity: hP2X3 (Homo sapiens, UniProt P56373)
# Construct: expressed in transfected cells; host or cells: e.g. HEK293 or 1321N1
# Sequence (P56373 1-397): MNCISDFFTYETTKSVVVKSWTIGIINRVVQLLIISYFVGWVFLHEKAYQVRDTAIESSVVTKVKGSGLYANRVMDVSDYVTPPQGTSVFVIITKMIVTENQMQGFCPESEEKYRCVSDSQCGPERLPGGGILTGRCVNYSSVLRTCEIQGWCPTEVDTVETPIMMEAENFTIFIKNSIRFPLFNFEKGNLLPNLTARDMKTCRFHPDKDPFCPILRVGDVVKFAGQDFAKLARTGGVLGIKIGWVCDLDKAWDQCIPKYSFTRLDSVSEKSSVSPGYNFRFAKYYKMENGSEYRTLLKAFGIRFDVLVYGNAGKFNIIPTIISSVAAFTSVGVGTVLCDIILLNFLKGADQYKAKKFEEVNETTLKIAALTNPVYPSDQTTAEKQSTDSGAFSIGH
# assay: Calcium uptake assay (P2X antagonist assay), P2X3 homomer
# Type: cell-based
# condition.description: calcium uptake assay, hP2X3; read-out: IC50 hP2X3 (nM), Ca Influx

Worked examples follow.
- compound: "Cc1ccc(-c2cc(C(=O)N[C@H](C)c3ccc(C)nc3)cc(S(=O)(=O)C(C)C)c2)cc1"
  IC50: "< 100 nM"
- compound: "Cc1ccc(-c2cc(C(=O)NC(C)c3ccc(Cl)c(S(C)(=O)=O)c3)cc(C(=O)N3CCCC3)c2)cc1 (centres unmarked)"
  IC50: "100 to 500 nM"
- compound: "Cc1ccc(-c2cc(C(=O)NCc3ccc4cccnc4c3)cc(S(C)(=O)=O)c2)cc1"
  IC50: "100 to 500 nM"

Input line: Sample Cc1ccc(-c2cc(C(=O)N[C@H](C)c3cnc(C)nc3)cc(C(=O)N3CC[C@@H](O)C3)c2)cc1 — what was its IC50?
Output line: < 100 nM

Input line: Record request: IC50 value, item Cc1ccc(-c2cc(C(=O)N[C@H](C)c3cnc(C)nc3)cc(S(=O)(=O)CC(C)C)c2)cc1
Output line: < 100 nM

Input line: What measured IC50 goes with Cc1ccc(-c2cc(C(=O)NCc3cnc(C)nc3)cc(C(=O)N3CCCC3)c2)nc1 ?
Output line: < 100 nM

Input line: Which IC50 value is on record for Cc1ccc(-c2cc(C(=O)NCc3ccn4ccnc4c3)cc(C(=O)N3CCCC3)c2)cc1 ?
Output line: < 100 nM

Input line: If you can, please state the reported IC50 value of Cc1ccc(-c2cc(C(=O)N[C@H](C)c3ccc(C)nc3)cc(S(C)(=O)=O)c2)cc1 .
Output line: < 100 nM

* * *

# target.entity: hP2X2/3H (Homo sapiens, UniProt P56373+Q9UBL9)
# Construct: expressed in transfected cells; host or cells: e.g. HEK293 or 1321N1
# assay: Calcium uptake assay (P2X antagonist assay), P2X2/3 heteromer
# Assay type: cell-based
# condition.description: calcium uptake assay, hP2X2/3H; read-out: IC50 hP2X2/3H (nM), Ca Influx
readout.name: IC50

Recorded IC50, per entry:
- compound: "Cc1ncc(CNC(=O)c2cc(C(=O)N3CCCC3)cc(-c3ccc(F)cc3F)c2)cn1 [Compound 53]"
  target.entity: "hP2X2/3H (Homo sapiens, UniProt P56373+Q9UBL9)"
  IC50: "> 1000 nM"
- compound: "Cc1ccc(-c2cc(C(=O)NCc3ccn4ccnc4c3)cc(C(=O)N(C)CC(C)C)c2)cc1 [Compound 11]"
  target.entity: "hP2X2/3H (Homo sapiens, UniProt P56373+Q9UBL9)"
  IC50: "100 to 500 nM"
- compound: "Cc1ccc(-c2cc(C(=O)N[C@H](CO)c3ccc(C(F)F)nc3)cc(C(=O)N3CCCC3)c2)cc1 [Compound 89]"
  target.entity: "hP2X2/3H (Homo sapiens, UniProt P56373+Q9UBL9)"
  IC50: "< 100 nM"

Input line: Any idea what IC50 was measured for Cc1ccc(-c2cc(C(=O)NCc3ccc(C)nc3)cc(S(C)(=O)=O)c2)cc1 [Compound 58] ?
Output line: < 100 nM

Input line: Would you mind telling me what IC50 value was observed for Cc1ccc(CNC(=O)c2cc(-c3ccc(Cl)c(C(F)(F)F)c3)cc(S(C)(=O)=O)c2)cn1 [Compound 139] ?
Output line: > 1000 nM

Input line: Which IC50 value is on record for Cc1ccc(-c2cc(C(=O)NCc3ccc(C)nc3)cc(S(=O)(=O)CC(C)C)c2)cc1 [Compound 183] ?
Output line: < 100 nM

Input line: Reported IC50 for Cc1ccc(-c2cc(C(=O)NCc3ccc(Cl)nc3)cc(C(=O)N3CCCC3)c2)c(C#N)c1 [Compound 69] : what is it?
Output line: < 100 nM

Input line: Value lookup for IC50; key = Cc1ccc(-c2cc(C(=O)NCc3ccc(C)nc3)cc(C(=O)N3CCCC3)c2)c(C#N)c1 [Compound 61]
Output line: < 100 nM
